Kindly supply the reported AC50 values for the records listed here.
target: 5-hydroxytryptamine receptor 2B (Homo sapiens, UniProt P41595); format: functional, cell-based; also: assay procedure not described here
Sequence (P41595 whole entry): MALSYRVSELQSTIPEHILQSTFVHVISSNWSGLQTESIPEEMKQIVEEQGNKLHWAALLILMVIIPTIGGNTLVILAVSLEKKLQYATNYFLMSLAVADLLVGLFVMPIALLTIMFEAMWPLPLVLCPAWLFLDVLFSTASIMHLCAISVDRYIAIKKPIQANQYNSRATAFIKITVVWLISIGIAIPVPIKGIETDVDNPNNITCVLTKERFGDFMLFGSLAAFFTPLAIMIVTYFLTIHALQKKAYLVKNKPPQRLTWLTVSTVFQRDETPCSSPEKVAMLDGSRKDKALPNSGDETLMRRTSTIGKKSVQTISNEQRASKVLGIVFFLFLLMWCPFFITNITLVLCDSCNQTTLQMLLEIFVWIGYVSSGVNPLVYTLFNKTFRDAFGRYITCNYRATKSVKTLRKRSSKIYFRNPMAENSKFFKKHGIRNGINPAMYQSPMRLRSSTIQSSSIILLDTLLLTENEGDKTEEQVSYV

Consider the compound Cc1cc2c(OCC(CNC(C)(C)C)OC(=O)c3ccccc3)cccc2[nH]1 (stereo unspecified) [BOPINDOLOL] and give its recorded AC50. > 30 µM

Consider the compound "C=C1CC[C@@]2(O)[C@H]3Cc4ccc(O)c5c4[C@@]2(CCN3CC2CC2)[C@H]1O5" and give its recorded AC50. > 30 µM

Consider the compound CN1CCc2cccc3c2[C@H]1Cc1ccc(O)c(O)c1-3 [APOMORPHINE] and give its recorded AC50. > 10 µM

Consider the compound COC(=O)[C@H]1[C@@H](OC(=O)c2ccccc2)C[C@@H]2CC[C@H]1N2C [COCAINE] and give its recorded AC50. > 30 µM

Consider the compound CCCCN1CCCCC1C(=O)Nc1c(C)cccc1C (stereo unspecified) [BUPIVACAINE] and give its recorded AC50. > 30 µM

Consider the compound CCCC(=O)N1CCCN(c2nc(N)c3cc(OC)c(OC)cc3n2)CC1 [BUNAZOSIN] and give its recorded AC50. > 30 µM

Consider the compound CC(C)(Oc1ccc(C2CC2(Cl)Cl)cc1)C(=O)O (stereo unspecified) [CIPROFIBRATE] and give its recorded AC50. > 30 µM

Consider the compound CC(C)C(=O)OCC(=O)[C@@]12O[C@H](C3CCCCC3)O[C@@H]1C[C@H]1[C@@H]3CCC4=CC(=O)C=C[C@]4(C)[C@H]3[C@@H](O)C[C@@]12C [CICLESONIDE] and give its recorded AC50. > 10 µM

Consider the compound O=C(CCCCCCC(=O)Nc1ccccc1)NO [VORINOSTAT] and give its recorded AC50. > 30 µM

Consider the compound COCC1=C(C(=O)OC(C)OC(=O)OC(C)C)N2C(=O)[C@@H](NC(=O)/C(=N\OC)c3csc(N)n3)[C@H]2SC1 (stereo partly specified) [CEFPODOXIME PROXETIL] and give its recorded AC50. > 30 µM

Consider the compound Cc1ccc(-c2nc3ccc(C)cn3c2CC(=O)N(C)C)cc1 [ZOLPIDEM] and give its recorded AC50. > 30 µM

Consider the compound O=C(NC[C@H]1CN(c2ccc(N3CCOCC3=O)cc2)C(=O)O1)c1ccc(Cl)s1 [RIVAROXABAN] and give its recorded AC50. > 30 µM

Consider the compound NS(=O)(=O)c1cc(Cl)c(Cl)c(S(N)(=O)=O)c1 [DICHLORPHENAMIDE] and give its recorded AC50. > 10 µM

Consider the compound Oc1ncnc2[nH]ncc12 [ALLOPURINOL] and give its recorded AC50. > 10 µM

Consider the compound NC[C@H]1O[C@H](O[C@H]2[C@H](O)[C@@H](O[C@H]3O[C@H](CO)[C@@H](O)[C@H](N)[C@H]3O)[C@H](N)C[C@@H]2N)[C@H](O)[C@@H](O)[C@@H]1O [KANAMYCIN] and give its recorded AC50. > 10 µM

Consider the compound COc1ccc(C(=O)NCc2ccc(OCCN(C)C)cc2)cc1OC [ITOPRIDE] and give its recorded AC50. > 30 µM

Consider the compound CC(N)Cc1ccccc1 (stereo unspecified) [AMPHETAMINE] and give its recorded AC50. > 30 µM

Consider the compound CN1CCCN=C1COC(=O)C(O)(c1ccccc1)C1CCCCC1 (stereo unspecified) [OXYPHENCYCLIMINE] and give its recorded AC50. > 10 µM

Consider the compound C[N+](C)(C)CC(=O)O [BETAINE] and give its recorded AC50. > 30 µM

Consider the compound COc1ccc2c(c1)c(CC(=O)OCC(=O)O)c(C)n2C(=O)c1ccc(Cl)cc1 [ACEMETACIN] and give its recorded AC50. > 30 µM

Consider the compound CC(Cc1ccccc1)NCCC(c1ccccc1)c1ccccc1 (stereo unspecified) [PRENYLAMINE] and give its recorded AC50. > 10 µM

Consider the compound NC1=NC(=O)C(c2ccccc2)O1 (stereo unspecified) [PEMOLINE] and give its recorded AC50. > 10 µM

Consider the compound C[C@@H]1O[C@@H]1P(=O)(O)O [FOSFOMYCIN] and give its recorded AC50. > 10 µM

Consider the compound CC(=O)OCC(=O)[C@@]12OC3(CCCC3)O[C@@H]1C[C@H]1[C@@H]3CCC4=CC(=O)C=C[C@]4(C)[C@@]3(F)[C@@H](O)C[C@@]12C [AMCINONIDE] and give its recorded AC50. > 10 µM

Consider the compound NC(=O)C[S+]([O-])C(c1ccccc1)c1ccccc1 (stereo unspecified) [MODAFINIL] and give its recorded AC50. > 10 µM

Consider the compound CCCCCCC(C)(C)c1cc(O)c2c(c1)OC(C)(C)C1CCC(=O)CC21 (stereo unspecified) [NABILONE] and give its recorded AC50. > 30 µM

Consider the compound Cc1nc2ccc(CN(C)c3ccc(C(=O)N[C@@H](CCC(=O)O)C(=O)O)s3)cc2c(=O)[nH]1 [RALTITREXED] and give its recorded AC50. > 30 µM

Consider the compound O=C(Nc1ccccc1)OCC(CN1CCCCC1)OC(=O)Nc1ccccc1 (stereo unspecified) [DIPERODON] and give its recorded AC50. > 10 µM

Consider the compound CN1C(=O)COc2c(C(=O)NC3CN4CCC3CC4)cc(Cl)cc21 (stereo unspecified) [AZASETRON] and give its recorded AC50. > 30 µM

Consider the compound CCCCCN(C)CCC(O)(P(=O)(O)O)P(=O)(O)O [IBANDRONIC ACID] and give its recorded AC50. > 30 µM

Consider the compound O=C1CCC(N2C(=O)c3ccccc3C2=O)C(=O)N1 (stereo unspecified) [THALIDOMIDE] and give its recorded AC50. > 10 µM

Consider the compound CC(C)NNC(=O)c1ccncc1 [IPRONIAZID] and give its recorded AC50. > 30 µM

Consider the compound O=C1NCCN1CCN1CCC(c2cn(-c3ccc(F)cc3)c3ccc(Cl)cc23)CC1 [SERTINDOLE] and give its recorded AC50. > 30 µM

Consider the compound "CO/N=C(\C(=O)N[C@@H]1C(=O)N2C(C(=O)OCOC(=O)C(C)(C)C)=C(C)CS[C@H]12)c1csc(N)n1" and give its recorded AC50. > 30 µM

Consider the compound CC(C(=O)O)c1ccc(C(=O)c2cccs2)cc1 (stereo unspecified) [SUPROFEN] and give its recorded AC50. > 10 µM

Consider the compound CCC1(C2=CCCCCC2)C(=O)NC(=O)NC1=O [HEPTABARBITAL] and give its recorded AC50. > 10 µM
